# target_or_test_system: DPDE4 (plasmid pADH72C) (Homo sapiens, UniProt Q07343)
# Sequence (Q07343 whole entry): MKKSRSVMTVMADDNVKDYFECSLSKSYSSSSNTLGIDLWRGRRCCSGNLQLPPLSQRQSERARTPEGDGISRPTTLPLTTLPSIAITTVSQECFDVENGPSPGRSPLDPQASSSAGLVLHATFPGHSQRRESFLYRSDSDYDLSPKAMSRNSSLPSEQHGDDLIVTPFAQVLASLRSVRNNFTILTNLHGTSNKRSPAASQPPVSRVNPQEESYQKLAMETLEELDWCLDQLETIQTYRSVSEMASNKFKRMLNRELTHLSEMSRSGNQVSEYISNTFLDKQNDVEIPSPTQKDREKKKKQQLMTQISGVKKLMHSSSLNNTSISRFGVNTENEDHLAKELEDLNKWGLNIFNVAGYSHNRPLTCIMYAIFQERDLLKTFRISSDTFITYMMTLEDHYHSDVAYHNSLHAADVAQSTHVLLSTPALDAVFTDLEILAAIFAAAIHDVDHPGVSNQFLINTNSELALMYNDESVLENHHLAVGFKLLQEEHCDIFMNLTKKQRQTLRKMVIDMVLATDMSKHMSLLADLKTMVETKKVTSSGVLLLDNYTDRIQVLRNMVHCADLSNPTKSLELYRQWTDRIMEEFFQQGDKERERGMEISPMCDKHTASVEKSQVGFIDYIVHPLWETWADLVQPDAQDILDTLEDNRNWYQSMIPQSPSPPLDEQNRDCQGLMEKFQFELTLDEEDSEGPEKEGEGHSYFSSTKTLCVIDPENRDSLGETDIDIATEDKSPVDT
# condition_context: 1 μM 3H cAMP, SD in parentheses
endpoint_label: pIC50
By convention, pIC50 is the negative base-10 log of a molar concentration.

Prompt line: I have this compound here, COCc1nc2c([nH]1)c(=O)n(C)c(=O)n2CC(C)C , and I need its recorded pIC50.
Response line: 3.72

---

# target_or_test_system: dnc (plasmid pADDROSC, full-length) (Drosophila melanogaster)
# Sequence (P12252 1-701 isoform P12252-3): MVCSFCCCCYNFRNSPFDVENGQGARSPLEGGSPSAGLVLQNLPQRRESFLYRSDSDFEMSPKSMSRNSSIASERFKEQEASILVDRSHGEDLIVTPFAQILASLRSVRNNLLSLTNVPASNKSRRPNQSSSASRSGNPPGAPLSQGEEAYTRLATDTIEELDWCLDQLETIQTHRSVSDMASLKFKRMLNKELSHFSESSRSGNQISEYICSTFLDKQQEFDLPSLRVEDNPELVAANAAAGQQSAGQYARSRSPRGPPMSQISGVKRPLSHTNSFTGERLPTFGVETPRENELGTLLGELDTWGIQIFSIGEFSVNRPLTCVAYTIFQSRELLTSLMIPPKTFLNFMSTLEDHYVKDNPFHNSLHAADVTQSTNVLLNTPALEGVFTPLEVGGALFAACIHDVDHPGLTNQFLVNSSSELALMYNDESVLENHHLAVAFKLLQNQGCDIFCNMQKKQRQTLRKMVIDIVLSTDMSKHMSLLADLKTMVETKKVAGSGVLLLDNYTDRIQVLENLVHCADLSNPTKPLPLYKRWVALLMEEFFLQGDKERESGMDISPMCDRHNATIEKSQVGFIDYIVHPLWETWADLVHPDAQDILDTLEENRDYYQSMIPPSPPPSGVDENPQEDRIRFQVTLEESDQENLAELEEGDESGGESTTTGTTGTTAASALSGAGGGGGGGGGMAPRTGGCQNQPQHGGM
# measurement_description: biochemical
# condition_context: pADDR; 1 μM 3H cAMP; SD in parentheses; read-out: IC50
endpoint_label: pIC50
By convention, pIC50 is the negative base-10 log of a molar concentration.

Prompt line: I have this compound here, COCc1nc2c([nH]1)c(=O)n(C)c(=O)n2CC(C)C [8-Methoxy IBMX] , and I need its recorded pIC50.
Response line: 3.77

---

# target_or_test_system: pJC44x human cyclic AMP phosphodiesterase
# measurement_description: Phosphodiesterase activity of 10DAB yeast extract expressing human cDNA (kinetics, inhibitor sensitivity)
# condition_context: read-out: EC50 (inhibitor concentration at 50% enzyme velocity); 1.0 μM cAMP
endpoint_label: EC50 (µM)
API: value field is a number in µM; no unit string.

See these solved cases before continuing.
• Cc1[nH]c(=O)c(C#N)cc1-c1ccncc1 [Milrinone] = 30
• Cn1c(=O)c2[nH]cnc2n(C)c1=O [Theophylline] = 300
• CCCCOc1cc(CC2CNC(=O)N2)ccc1OC (centres unmarked) [RO 20-1724] = 3

Prompt line: I have this compound here, COc1ccc(C2CNC(=O)C2)cc1OC1CCCC1 (centres unmarked) [Rolipram] , and I need its recorded EC50.
Response line: 0.4

// data source = patent US6069240A
